Test system: Bacillus subtilis
assay: Antibacterial activity against penicillin-susceptible Bacillus subtilis ATCC 9372 after 24 hrs by broth microdilution method
Type: functional
condition info: ATCC 9372, 24 h

[
  {
    "molecule": "COc1ccc(-c2ccc3c(c2)c2ccccc2c[n+]3C)cc1.[Cl-]",
    "MIC / µg/mL": 4
  },
  {
    "molecule": "Cc1ccc(-c2ccc3c(c2)c2ccccc2c[n+]3C)cc1.[Cl-]",
    "MIC / µg/mL": 2
  },
  {
    "molecule": "C[n+]1cc2ccccc2c2cc(-c3cccc(C(F)(F)F)c3)ccc21.[Cl-]",
    "MIC / µg/mL": 16
  },
  {
    "molecule": "Cc1ccc(-c2cc(C)c3c(c2)c2ccccc2c[n+]3C)cc1.[Cl-]",
    "MIC / µg/mL": 0.5
  },
  {
    "molecule": "Cc1cc(-c2ccc(C(F)(F)F)cc2)cc2c3ccccc3c[n+](C)c12.[Cl-]",
    "MIC / µg/mL": 0.06
  },
  {
    "molecule": "O=C(O)c1cn(C2CC2)c2cc(N3CCNCC3)c(F)cc2c1=O [CIPROFLOXACIN]",
    "MIC / µg/mL": 2
  },
  {
    "molecule": "COc1cc(-c2ccccc2C(F)(F)F)cc2c3ccccc3c[n+](C)c12.[Cl-]",
    "MIC / µg/mL": 16
  },
  {
    "molecule": "C[n+]1cc2ccccc2c2cc(-c3ccc(C(F)(F)F)cc3)ccc21.[Cl-]",
    "MIC / µg/mL": 4
  },
  {
    "molecule": "Cc1cc(-c2ccccc2C(F)(F)F)cc2c3ccccc3c[n+](C)c12.[Cl-]",
    "MIC / µg/mL": 0.5
  },
  {
    "molecule": "COc1ccc(-c2cc(C)c3c(c2)c2ccccc2c[n+]3C)cc1.[Cl-]",
    "MIC / µg/mL": 2
  },
  {
    "molecule": "COc1cc(-c2cccc(C(F)(F)F)c2)cc2c3ccccc3c[n+](C)c12.[Cl-]",
    "MIC / µg/mL": 4
  },
  {
    "molecule": "COc1cc(-c2ccc(OC(F)(F)F)cc2)cc2c3ccccc3c[n+](C)c12.[Cl-]",
    "MIC / µg/mL": 4
  },
  {
    "molecule": "C[n+]1cc2ccccc2c2cc(-c3ccc(-c4ccccc4)cc3)ccc21.[Cl-]",
    "MIC / µg/mL": 8
  },
  {
    "molecule": "C[n+]1cc2ccccc2c2cc(-c3ccc(OC(F)(F)F)cc3)ccc21.[Cl-]",
    "MIC / µg/mL": 2
  },
  {
    "molecule": "Cc1onc(-c2ccccc2)c1C(=O)N[C@@H]1C(=O)N2[C@@H]1SC(C)(C)[C@@H]2C(=O)[O-].[Na+]",
    "MIC / µg/mL": 4
  },
  {
    "molecule": "COc1cc(/C=C/C(=O)CC(=O)/C=C/c2ccc(O)c(OC)c2)ccc1O [CURCUMIN]",
    "MIC / µg/mL": 32
  },
  {
    "molecule": "C[n+]1cc2ccccc2c2cc(-c3ccccc3C(F)(F)F)ccc21.[Cl-]",
    "MIC / µg/mL": 32
  },
  {
    "molecule": "C[n+]1cc2c3c(ccc2c2ccc4cc5c(cc4c21)OCO5)OCO3.[Cl-] [SANGUINARIUM CHLORIDE]",
    "MIC / µg/mL": 4
  },
  {
    "molecule": "COc1ccc(-c2cc(OC)c3c(c2)c2ccccc2c[n+]3C)cc1.[Cl-]",
    "MIC / µg/mL": 2
  },
  {
    "molecule": "Cc1cc(-c2cccc(C(F)(F)F)c2)cc2c3ccccc3c[n+](C)c12.[Cl-]",
    "MIC / µg/mL": 0.25
  },
  {
    "molecule": "COc1cc(-c2ccc(C)cc2)cc2c3ccccc3c[n+](C)c12.[Cl-]",
    "MIC / µg/mL": 0.5
  },
  {
    "molecule": "Cc1cc(-c2ccc(OC(F)(F)F)cc2)cc2c3ccccc3c[n+](C)c12.[Cl-]",
    "MIC / µg/mL": 0.125
  },
  {
    "molecule": "COc1cc(-c2ccc(C(F)(F)F)cc2)cc2c3ccccc3c[n+](C)c12.[Cl-]",
    "MIC / µg/mL": 1
  },
  {
    "molecule": "COc1cc(-c2ccc(-c3ccccc3)cc2)cc2c3ccccc3c[n+](C)c12.[Cl-]",
    "MIC / µg/mL": 2
  },
  {
    "molecule": "Cc1cc(-c2ccccc2)cc2c3ccccc3c[n+](C)c12.[Cl-]",
    "MIC / µg/mL": 1
  },
  {
    "molecule": "Cc1cc(-c2ccc(-c3ccccc3)cc2)cc2c3ccccc3c[n+](C)c12.[Cl-]",
    "MIC / µg/mL": 0.125
  },
  {
    "molecule": "C[n+]1cc2ccccc2c2cc(-c3ccccc3)ccc21.[Cl-]",
    "MIC / µg/mL": 4
  },
  {
    "molecule": "COc1cc(-c2ccccc2)cc2c3ccccc3c[n+](C)c12.[Cl-]",
    "MIC / µg/mL": 1
  }
]
